- experimental.details: in vitro
- test.context: human, MT4 cells
- Description: Selectivity index, ratio of CC50 for human MT4 cells to EC50 for HIV-2 ROD infected in human MT4 cells
reported.property: selectivity ratio
Respond numerically, and do not add a unit to the figure.

Cc1cc(/C=C/C#N)cc(C)c1Oc1ccnc(Nc2ccc3scnc3c2)n1 = 7.13
Cc1cc(/C=C/C#N)cc(C)c1Oc1ccnc(Nc2ccc3c(c2)OCO3)n1 = 4.98
Cc1cc(/C=C/C#N)cc(C)c1Oc1ccnc(Nc2ccc3occc3c2)n1 = 4.74

API: the following record is the query input.
Form field selectivity ratio, entry Cc1cc(/C=C/C#N)cc(C)c1Oc1ccnc(Nc2ccc3nsnc3c2)n1 : 16.4

====

Catalogue of CC50 at 120 h readings, one per entry.
- experimental.details: Cytotoxicity against human MT4 cells assessed as reduction in cell viability measured after 5 days by MTT assay
- Type: toxicity, cell-based
- test.context: time 5 day
A number alone suffices; assume µM.

Here is how some molecules turned out for CC50 at 120 h.
Cc1cc(/C=C/C#N)cc(C)c1Oc1ccnc(Nc2ccc3c(c2)CCN(C(=O)CS(C)(=O)=O)C3)n1 = 5.95
Cc1cc(/C=C/C#N)cc(C)c1Oc1ccnc(Nc2ccc3c(c2)COC3)n1 = 14
Cc1nc2cc(Nc3nccc(Oc4c(C)cc(/C=C/C#N)cc4C)n3)ccc2s1 = 5.31

Form field CC50 at 120 h, entry COP(=O)(OC)N1CCc2cc(Nc3nccc(Oc4c(C)cc(/C=C/C#N)cc4C)n3)ccc2C1 : 4.18

Form field CC50 at 120 h, entry Cc1cc(/C=C/C#N)cc(C)c1Oc1ccnc(Nc2ccc3cnsc3c2)n1 : 10.1

Form field CC50 at 120 h, entry COP(=O)(OC)N1CCc2ccc(Nc3nccc(Oc4c(C)cc(/C=C/C#N)cc4C)n3)cc2C1 : 7.01

Form field CC50 at 120 h, entry Cc1cc(/C=C/C#N)cc(C)c1Oc1ccnc(Nc2ccc3ncsc3c2)n1 : 46

Form field CC50 at 120 h, entry Cc1cc(/C=C/C#N)cc(C)c1Oc1ccnc(Nc2ccc3c(c2)OCO3)n1 : 40.8
